# Tested on: CACO-2 colorectal adenocarcinoma cells
# ASSAY NOTES: MTT cytotoxicity assay, CACO-2
# Format: cell-based, human
# CONDITION LABEL: Homo sapiens, Caco-2, 72 h, for 5-FU loaded systems MW includes the estimated number of 5-FU molecules, read-out: CACO-2 IC50 ± SD
pIC50: −log10 of the molar value.
OBSERVED PROPERTY: pIC50

What value of pIC50 has been reported for the following molecule? O=c1[nH]cc(F)c(=O)[nH]1
< 3.81

* * *

# System: red blood cells
# ASSAY NOTES: Hemotoxicity (hemolysis) assay, cyanmethemoglobin method
# Type: cell-based
# CONDITION LABEL: human blood, concentrations 0.1 and 1 µg/mL
OBSERVED PROPERTY: hemolysis at 3 h

What value of hemolysis at 3 h on red blood cells does O=c1[nH]cc(F)c(=O)[nH]1 have?
~5%

* * *

# System: MCF-7 breast cancer cells
# ASSAY NOTES: MTT cytotoxicity assay, MCF-7
# Format: cell-based, human
# CONDITION LABEL: MTT, 72 h; read-out: MCF-7 IC50 ± SD
# Procedure: Several human cell lines were used in the cytotoxicity evaluation studies, namely: ovarian cancer cells (A2780), cisplatin-resistant ovarian cancer cells (A2780CisR), breast cancer cells (MCF-7), colorectal adenocarcinoma cells (CACO-2), and fibroblast cells (BJ, a non-cancer cell line). […] The metallodendrimers cytotoxicity was evaluated using all the mentioned cell lines at the concentrations of 0.01, 0.03, 0.1, 0.5, 1, 2.5, 5, and 10 µM. […]
OBSERVED PROPERTY: IC50

What value of IC50 has been reported for the following compound? O=C1[O][Pt]2([NH][C@@H]3CCCC[C@H]3[NH]2)[O]C1=O [Oxaliplatin]
> 10 µM
